# Test system: Trypanosoma brucei
# method-summary: Trypanosoma brucei 72 hour study
# Type: functional, organism-based
# Design: scale not given: in the data most compounds retested in dose-response had high values
# condition-info: 30.3 µM; […]
Screen size: about 66,000 compounds; about 960 (1.5%) showed an effect of 50% or more. This excerpt belongs to a sample that is enriched for strong results.
Class membership depends on Percent Effect alone; the intervals are 0 (below -20%), 1 (-20% to below 50%), 2 (50% or more)

Illustrative cases are given below, each with its answer.
molecule	qualitative-label
CC(C)Nc1cc(-c2c[nH]nc2C2CCN(C(=O)C3CCC3)C2)ccn1 (stereo unspecified)	2
CN(C)CCOCc1cncc2c1CCN(Cc1ccccn1)C2.O=C(O)C(F)(F)F.O=C(O)C(F)(F)F.O=C(O)C(F)(F)F	0
CCOC(=O)N1CCc2ccccc2C12CCNCC2.Cl	0
CCCNc1cc(-c2c[nH]nc2C2CCN(C(=O)C3CCC3)C2)ccn1 (stereo unspecified)	2
Cc1cc(CN2CCC(CNS(=O)(=O)c3ccccc3F)CC2)c(C)o1	1
Cc1cc(Cc2ccc(F)cc2)cc(C2CCCNC2)n1 (stereo unspecified)	2

Query block: Just checking, what class would you give Cc1cccc(Cc2cc(C)nc(C3CCCNC3)c2)c1 (stereo unspecified) here?
Result block: 2

Query block: Just checking, what class would you give CC1=N[C@@]2(CC[C@@H]3CN(Cc4ccccc4)C[C@@H]32)C(=O)N1CC1CC1.O=C(O)C(F)(F)F here?
Result block: 0

---

# Tested on: Trypanosoma brucei
# method-summary: Trypanosoma brucei 72 hour study
# Format: functional, organism-based
# Parameters: scale not given: in the data most compounds retested in dose-response had high values
# condition-info: 30.3 µM; […]
In all, about 66,000 compounds went through this assay and about 960 (1.5%) showed an effect of 50% or more. This is one part of a sample in which strong results are shown more often than they occur.
Output condition met for records whose Percent Effect is lower than 10%, condition not met for records at or above 10%.

Illustrative cases are given below, each with its answer.
smiles-input	qualitative-label
CC[C@H](C)[C@H](N)C(=O)Nc1nc(-c2cnc(N3CCOCC3)nc2)cs1	condition not met
CN(Cc1cccnc1)[C@@H]1CN(C(=O)NC2CC2)[C@@H]2CCCO[C@H]12.O=C(O)C(F)(F)F.O=C(O)C(F)(F)F	condition met
CC[C@@H](C)[C@@H](N)C(=O)Nc1cccc(-c2cnc(N(C)C)nc2)c1	condition not met
Cl.NCCC(=O)Nc1ccc(-c2ccccc2)cc1	condition not met

Here's the next entry for you.
Query block: Field: below-cutoff. Rule: recorded Percent Effect strictly less than 10%. Subject: CC[C@H](C)[C@H](N)C(=O)Nc1nc(-c2cnc(N(C)C)nc2)cs1
Result block: condition not met

---

# System: Trypanosoma brucei
# method-summary: Trypanosoma brucei 72 hour study
# Type: functional, organism-based
# Parameters: scale not given: in the data most compounds retested in dose-response had high values
# condition-info: 30 µM; 30.03 µM
The campaign covered roughly 66,000 compounds. About 960 (1.5%) showed an effect of 50% or more. The list comes from a sample in which strong results are over-represented; it also holds close analogues and randomly drawn compounds.
Class membership depends on Percent Effect alone; the intervals are low: < -20%; moderate: ≥ -20% and < 10%; high: ≥ 10%

molecule	qualitative-label
CC1=CC[C@@H]2CN(C(=O)c3ccc(-c4nc[nH]n4)cc3)C[C@@H]2C1	high
O=C(NCCC1COc2ccccc2O1)c1ccc(-c2cn[nH]c2)nc1 (stereo unspecified)	high
Cc1nc(N(C)C)nc(C)c1NC(=O)c1ccccc1F	low
O=C(NCc1ccc2c(c1)OCO2)c1ccc(N2CCCCCC2)nc1	moderate
O=C(c1ccc(-c2cc[nH]n2)cc1)N1CC[C@H](CO)[C@H](O)C1	moderate

Query block: Just checking, what class would you give CC(C)c1noc(CCNC(=O)NCC2COc3ccccc3O2)n1 (stereo unspecified) here?
Result block: low

Query block: Just checking, what class would you give CC(C)c1nccn1CCCNC(=O)c1ccc(-c2cn[nH]c2)nc1 here?
Result block: moderate

Query block: Just checking, what class would you give c1cc2n(n1)CC(CNCc1ccc(OC3CCCCC3)nc1)CN2 (stereo unspecified) here?
Result block: high

---

# System: Trypanosoma brucei
# method-summary: Trypanosoma brucei 72 hour study
# Assay type: functional, organism-based
# Parameters: scale not given: in the data most compounds retested in dose-response had high values
# condition-info: 30 µM; 30.03 µM
Among all 66,000 compounds or so, about 960 (1.5%) showed an effect of 50% or more. The sample as a whole holds a higher share of strong results than the screen did.
measured-quantity: Percent Effect (%)
Write down the numeric answer in % and omit the unit.

compound	assayed-system	Percent Effect (%)
Cc1nc(N(C)C)nc(N2CCC3(CC2)CNC(=O)O3)c1C	Trypanosoma brucei	-29.71
CC1=N[C@@]2(CC[C@@H]3CN(Cc4ccccc4F)C[C@@H]32)C(=O)N1CC1CC1.O=C(O)C(F)(F)F	Trypanosoma brucei	55.44
CN(C)c1nc2c(c(N3CCCC4(CC3)CNC(=O)O4)n1)CCCC2 (stereo unspecified)	Trypanosoma brucei	52.4

Query block: State its Percent Effect for this compound: CCc1cc(-c2ccnc3c2ccn3C)nc(N2CCOCC2)n1
Result block: -28.1

Query block: State its Percent Effect for this compound: Cc1nc(N)sc1C(=O)N1CCCC(c2nccn2CCCN(C)C)C1 (stereo unspecified)
Result block: 50.48

Query block: State its Percent Effect for this compound: Cn1ccc2c(-c3cc(N)nc(N4CCOCC4)n3)ccnc21
Result block: 69.92

Query block: State its Percent Effect for this compound: CCN(CC)CCNC(=O)c1ccc(-n2ccc3ccccc32)s1
Result block: -12.39

Query block: State its Percent Effect for this compound: O=C(O)C(F)(F)F.O=C(O)C(F)(F)F.O=C(O)C(F)(F)F.OCCN1CCC2(CC1)CC(NCc1ccccn1)c1ccccc1O2 (stereo unspecified)
Result block: -31.61

Query block: State its Percent Effect for this compound: Cn1ccc2c(C(=O)NCCCN3CCCC3)cccc21
Result block: -4.832

Query block: State its Percent Effect for this compound: CNC(=O)Nc1cc(-c2ccccc2C)nn1CCO
Result block: -25.05

Query block: State its Percent Effect for this compound: CCn1ccnc1C1CCCN(C(=O)c2sc(C)nc2C)C1 (stereo unspecified)
Result block: -29.7

---

# System: Trypanosoma brucei
# method-summary: Trypanosoma brucei 72 hour study
# Type: functional, organism-based
# Parameters: scale not given: in the data most compounds retested in dose-response had high values
# condition-info: 30.3 µM; […]
Hit rate of the full screen: of about 66,000 compounds, about 960 (1.5%) showed an effect of 50% or more. Shown is part of a subset that was picked to be rich in strong results.
Output true for records whose Percent Effect is lower than -20%, false for records at or above -20%.

molecule	qualitative-label
Cc1cc(NC(=O)Nc2ccc3c(ccn3CCN(C)C)c2)n(C)n1	false
COCCN1CCC2(CC1)CN(C(=O)c1cccs1)CCO2.O=C(O)C(F)(F)F	false
Cc1ccc(Oc2c(F)cccc2OC[C@@H](N)CC(C)C)cc1	false
CCOCc1cc(CN2CCn3c(CO)nnc3C2)ccc1OC.O=C(O)CC(O)(CC(=O)O)C(=O)O	true
CCC(=O)N1CCN(CCn2cccn2)c2ncccc2C1.O=C(O)C(F)(F)F	true

Query block: Field: below-cutoff. Rule: recorded Percent Effect strictly less than -20%. Subject: CN(C)CCn1ccc2cc(NC(=O)NCc3ncnn3C)ccc21
Result block: false

Query block: Field: below-cutoff. Rule: recorded Percent Effect strictly less than -20%. Subject: CNC(=O)CN1CC[C@H]2CN(C(=O)c3cccc(C)c3)C[C@H]2C1.O=C(O)C(F)(F)F
Result block: true

Query block: Field: below-cutoff. Rule: recorded Percent Effect strictly less than -20%. Subject: Cc1ccc(CN2CCc3nnc(COCCN(C)C)n3CC2)o1.O=C(O)C(F)(F)F.O=C(O)C(F)(F)F
Result block: false

Query block: Field: below-cutoff. Rule: recorded Percent Effect strictly less than -20%. Subject: CC(C)C[C@H](N)COc1cccc(F)c1Oc1ccc(Cl)cc1
Result block: false

Query block: Field: below-cutoff. Rule: recorded Percent Effect strictly less than -20%. Subject: CNC(=O)C(CC(C)C)NC(=O)c1cccc(-c2nc(C)cs2)c1 (stereo unspecified)
Result block: false

Query block: Field: below-cutoff. Rule: recorded Percent Effect strictly less than -20%. Subject: CC(O)CN1CCC(CNCc2cccc(Cl)c2)CC1 (stereo unspecified)
Result block: false

Query block: Field: below-cutoff. Rule: recorded Percent Effect strictly less than -20%. Subject: COc1cc(CCC(=O)N2CCC(c3cc4ncccc4[nH]3)CC2)on1
Result block: false

Query block: Field: below-cutoff. Rule: recorded Percent Effect strictly less than -20%. Subject: CC(O)CN1CCC(CNCc2cccc(C(F)(F)F)c2)CC1 (stereo unspecified)
Result block: false

Query block: Field: below-cutoff. Rule: recorded Percent Effect strictly less than -20%. Subject: CCN1C(=O)CC[C@]12CC[C@@H](NC(=O)c1ccncc1F)CC2.O=C(O)C(F)(F)F
Result block: false

Query block: Field: below-cutoff. Rule: recorded Percent Effect strictly less than -20%. Subject: C[C@@H]1CN(Cc2cccnc2)C[C@]12CCN(CCN1CCCC1)C2=O.O=C(O)C(F)(F)F.O=C(O)C(F)(F)F.O=C(O)C(F)(F)F
Result block: true

Query block: Field: below-cutoff. Rule: recorded Percent Effect strictly less than -20%. Subject: CNC(=O)[C@H]1C[C@@H]2CN(Cc3ccccc3)C[C@H]1O2.O=C(O)C(F)(F)F
Result block: false

Query block: Field: below-cutoff. Rule: recorded Percent Effect strictly less than -20%. Subject: COc1cc(CCC(=O)N2CCC(c3cc4nccnc4[nH]3)CC2)on1
Result block: false
